Biological target: human recombinant KAT-II (Homo sapiens (Human), UniProt Q8N5Z0)
Sequence (Q8N5Z0 30-425): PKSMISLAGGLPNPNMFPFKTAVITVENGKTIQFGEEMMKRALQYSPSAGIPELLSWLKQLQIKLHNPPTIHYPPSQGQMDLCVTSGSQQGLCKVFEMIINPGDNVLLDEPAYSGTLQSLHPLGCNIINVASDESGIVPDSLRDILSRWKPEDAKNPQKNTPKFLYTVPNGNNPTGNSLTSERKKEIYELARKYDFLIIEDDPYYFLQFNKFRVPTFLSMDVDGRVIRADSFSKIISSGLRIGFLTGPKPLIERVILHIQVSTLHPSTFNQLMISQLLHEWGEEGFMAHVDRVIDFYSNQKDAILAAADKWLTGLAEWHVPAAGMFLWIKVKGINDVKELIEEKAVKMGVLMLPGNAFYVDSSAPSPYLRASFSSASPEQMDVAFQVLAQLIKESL
Experiment: KAT-II inhibitory test
Conditions: 3.0 μmol/L kynurenine, 37° C., 1 hr, pH 8.0; kynurenic acid quantified by HPLC
pIC50: −log10 of the molar value.
observed-property: pIC50

# entry-smiles, recorded-value
records = [
    ("CN1CCC(Cn2c(C(F)(F)F)nc3sc(N4CCC[C@@H]4C(=O)NCc4ccccc4)nc3c2=O)CC1", 6.82),
]

(P) CC(C)c1cc(=O)n2nc([C@H]3CCCN3C(=O)N3CCc4ccccc43)sc2n1
(Q) CCc1cc(=O)n2nc(N3CCC[C@@H]3C(=O)NCc3ccccc3)sc2c1
Q) Pick one: P or Q . Which has the bigger pIC50 number? Which one? Tell me its label.
A) Q

(P) CCc1cc(=O)n2nc([C@H]3CCCN3C(=O)Oc3ccccc3)sc2n1
(Q) Cn1c(CN2CCOCC2)nc2sc(N3CCC[C@@H]3C(=O)NCc3ccccc3)nc2c1=O
Q) Rank P against Q by their pIC50 values and give the higher one. // respond with label for picked entry
A) Q
(Q: 7.70, P: 6.85)
